test system: SK-MEL-5 melanoma; experiment: NCI-60 one-dose screen, 48 h; settings: 10 µM unless noted
This is part of a sample that, as a whole, favours compounds with a hit. Of some 83,000 tested, about 20% had one in any assay. Calls of active or inactive are those of the source. The calls were made as follows: active = growth percent below 10; inactive = the rest.
Possible outcomes: Y (active), N (inactive)

[[record]]
smiles_entry = "COc1ccc2c(c1)sc1nc(-c3ccccc3)c(-c3cccc4ccccc34)n12"
cat = "N"

[[record]]
smiles_entry = "CCCCCc1c(C)[nH]c(/C=C2\\N=C(c3ccc[nH]3)C=C2Oc2ccc(OC)cc2)c1C"
cat = "Y"

[[record]]
smiles_entry = "O=S(=O)(Cc1ccc(Cl)cc1Cl)c1ccc(Cl)cc1"
cat = "N"

[[record]]
smiles_entry = "CS(=O)(=O)c1ccc(C(=O)N/N=C/c2ccccc2Cl)cc1"
cat = "N"

[[record]]
smiles_entry = "O/N=C/c1ccncc1"
cat = "N"

[[record]]
smiles_entry = "CCCCCCCCCCCCCC1=NC(C)(C)CN1C(C)C"
cat = "Y"

[[record]]
smiles_entry = "Cc1c(C(=O)Nc2ccccc2F)sc2c(=O)[nH]cnc12"
cat = "N"

[[record]]
smiles_entry = "COc1cnc2c(c1)C(=O)c1c-2n(CCCN2CCN(C)CC2)c(=O)c2cc(Cl)ccc12"
cat = "N"

[[record]]
smiles_entry = "CCSc1cnnc2ccccc12"
cat = "N"

[[record]]
smiles_entry = "CC(C)c1cccc(C#N)c1"
cat = "N"

[[record]]
smiles_entry = "C/C(=N\\NC(=O)CSc1nc2ccccc2c(=O)n1CCc1ccc(S(N)(=O)=O)cc1)c1ccc(Br)cc1"
cat = "N"


---

test system: EKVX NSCLC; test: NCI-60 one-dose screen, 48 h (100 = growth as untreated, 0 = no growth, -100 = all killed); details: 10 µM unless noted
Compounds without any hit were thinned out: in the full panel of roughly 83,000, 20% have a hit.
// reported growth per item
Measurement name: growth (%)

[[record]]
compound = "CN1C(=O)N(C)C2C1NN=c1s/c(=C\\c3ccc(Br)cc3)c(=O)n12 (stereo not given)"
measurement_name = "growth"
obs_value = 50

[[record]]
compound = "CC(C)[C@@]12C[C@@H](OC(=O)C3CO3)[C@@](C)(O1)[C@@H]1CC[C@@H](C)[C@H]1[C@@H]2OC(=O)/C=C/c1ccccc1 (stereo not given in full)"
measurement_name = "growth"
obs_value = 82.3

[[record]]
compound = "Cc1cccc(/C=N/n2c(-c3ccc(Cl)cc3)nc3c(Br)cc(Br)cc3c2=O)c1"
measurement_name = "growth"
obs_value = 52.3

[[record]]
compound = "CS(=O)(=O)c1ccc(C(=O)N/N=C/c2ccc3c(c2)OCO3)cc1"
measurement_name = "growth"
obs_value = 100

[[record]]
compound = "CC(C)(CCc1ccccn1)C(=O)CCCc1ccccn1"
measurement_name = "growth"
obs_value = 105

[[record]]
compound = "CCOCCNc1ccc(S(=O)(=O)c2ccc(N)cc2)cc1N"
measurement_name = "growth"
obs_value = 86.6

[[record]]
compound = "CCN(CC)Cc1cc(Nc2ccnc3ccc(OC)cc23)ccc1O"
measurement_name = "growth"
obs_value = 67.1

[[record]]
compound = "CCC(=O)NC1=C(Cl)C(=O)C(NC(=O)CC)=C(Cl)C1=O"
measurement_name = "growth"
obs_value = 129

[[record]]
compound = "CCCCCCCCN(CCCCCCCC)C(=O)CCl"
measurement_name = "growth"
obs_value = 108

[[record]]
compound = "COc1cccc(N2CCN(c3ncnc4cc[nH]c34)CC2)c1"
measurement_name = "growth"
obs_value = 50.1


---

test system: HS 578T breast; assay: NCI-60 one-dose screen, 48 h (100 = growth as untreated, 0 = no growth, -100 = all killed); conditions: 10 µM unless noted
This is part of a sample that, as a whole, favours compounds with a hit. Of some 83,000 tested, about 20% had one in any assay.
Label yes for high-side growth (at or above 80%) and no for low-side growth (below it).

[[record]]
compound = "Oc1c(C(Nc2cccc3ccccc23)c2ccccc2)ccc2cccnc12 (stereo not given)"
cat = "no"

[[record]]
compound = "O=C(NCCN1CCCCC1)n1cc(-c2ccncc2)c(-c2ccc(Cl)c(O)c2)n1"
cat = "yes"

[[record]]
compound = "COc1ccc(/C(C)=N/NC(=O)CSc2nc3ccccc3c(=O)n2CCc2ccc(S(N)(=O)=O)cc2)cc1"
cat = "no"

[[record]]
compound = "COc1cc(Cl)cc(-c2nn(C(=O)NCCN3CCOCC3)cc2-c2ccncc2)c1"
cat = "yes"


---

system: COLO 205 colon; assay: NCI-60 one-dose screen, 48 h (100 = growth as untreated, 0 = no growth, -100 = all killed); details: 10 µM unless noted
This is part of a sample that, as a whole, favours compounds with a hit. Of some 83,000 tested, about 20% had one in any assay. Active and inactive are the calls of the source. Rule for the calls: active = growth percent below 10; inactive = the rest.
Measurement name: growth

[[record]]
compound = "CCN(CC)CCNC(=O)n1cc(-c2ccncc2)c(-c2ccc(Cl)c(OC)c2)n1"
measurement_name = "growth"
obs_value = "70.1% (inactive)"

[[record]]
compound = "COc1cccc(-c2nc3sccn3c2-c2ccnc(NCCN3CCCN(C)S3(=O)=O)n2)c1"
measurement_name = "growth"
obs_value = "45.8% (inactive)"

[[record]]
compound = "Clc1ccc(-c2cnc3nonc3n2)s1"
measurement_name = "growth"
obs_value = "67.6% (inactive)"

[[record]]
compound = "CCN(CC)CCCC(C)Nc1c(-c2ccccc2)cnc2cc(Cl)ccc12 (stereo unspecified)"
measurement_name = "growth"
obs_value = "85.3% (inactive)"

[[record]]
compound = "CNC(=O)OC1C(O[C@H]2C[C@H]3[C@@H]4CC=C5C[C@@H](O)CC[C@]5(C)[C@H]4CC[C@]3(C)[C@H]2[C@H](C)C(=O)CCC(C)C)OCC(O)C1OC1OCC(O)C(O)C1OC(=O)c1ccc(OC)cc1 (stereo partly specified)"
measurement_name = "growth"
obs_value = "-42.8% (active)"

[[record]]
compound = "Clc1ccc(-c2cnc3c(-c4ccnc(N5CCNCC5)c4)cnn3c2)cc1"
measurement_name = "growth"
obs_value = "-57.7% (active)"

[[record]]
compound = "COc1ccc(Oc2nc(Nc3ccc(N4CCOCC4)cc3)ncc2NC(=O)Nc2cccc(OC)c2)cc1"
measurement_name = "growth"
obs_value = "17.8% (inactive)"

[[record]]
compound = "Cc1cc2nc(CN)[nH]c2cc1C"
measurement_name = "growth"
obs_value = "104% (inactive)"

[[record]]
compound = "COc1ccc(/C=C/c2nc(NCCCN(C)C)c3ccccc3n2)cc1"
measurement_name = "growth"
obs_value = "85.9% (inactive)"

[[record]]
compound = "COc1ccccc1/C=N\\Nc1ccc([N+](=O)[O-])cn1"
measurement_name = "growth"
obs_value = "102% (inactive)"

[[record]]
compound = "CS(=O)(=O)c1ccc(C(=O)N2N=C(c3ccccc3)CC2c2ccc3c(c2)OCO3)cc1 (stereo unspecified)"
measurement_name = "growth"
obs_value = "81.4% (inactive)"

[[record]]
compound = "Cc1cc(O)ccc1Sc1ccccc1[N+](=O)[O-]"
measurement_name = "growth"
obs_value = "108% (inactive)"

[[record]]
compound = "COc1ccc(/C=C/C(=O)CCC(=O)O)cc1OC"
measurement_name = "growth"
obs_value = "106% (inactive)"

[[record]]
compound = "O=C(/C=C/c1ccccc1)c1c[nH]c2ccccc2c1=O"
measurement_name = "growth"
obs_value = "0.617% (active)"

[[record]]
compound = "C=C1C(=O)O[C@H]2[C@H]1CC/C(COC(=O)N[C@@H](Cc1c[nH]c3ccccc13)C(=O)OC)=C\\CC[C@@]1(C)O[C@@H]21"
measurement_name = "growth"
obs_value = "-69.2% (active)"

[[record]]
compound = "Nc1c(C(=O)C[C@@H](N)CO)ccc2c1C(=O)CCO2"
measurement_name = "growth"
obs_value = "46.9% (inactive)"

[[record]]
compound = "Clc1ccccc1CNc1c2ccccc2nc2ccccc12"
measurement_name = "growth"
obs_value = "0.525% (active)"

[[record]]
compound = "O=[N+]([O-])c1ccc(Sc2nc(Cl)nc(NC3CCCC3)n2)cc1"
measurement_name = "growth"
obs_value = "-61.5% [100 µM] (active)"

[[record]]
compound = "c1cc(C2CCCCC2)ccc1-c1cnc2nonc2n1"
measurement_name = "growth"
obs_value = "2.48% (active)"

[[record]]
compound = "CCN(CC)c1cc(C)c(Cc2c(OC)ccc3ccccc23)cc1C"
measurement_name = "growth"
obs_value = "96.7% (inactive)"

[[record]]
compound = "O=C(c1ccccc1)C1OC1C(=O)c1ccccc1 (stereo unspecified)"
measurement_name = "growth"
obs_value = "27.6% (inactive)"


---

# growth per entry
system: K-562 leukemia; experiment: NCI-60 one-dose screen, 48 h (100 = growth as untreated, 0 = no growth, -100 = all killed); settings: 10 µM unless noted
Compounds without any hit were thinned out: in the full panel of roughly 83,000, 20% have a hit.
Measurement name: growth (%)

[[record]]
compound = "COc1ccc(NC(=O)c2sc3c(=O)[nH]c(C(F)(F)F)nc3c2C)cc1"
system_tested = "K-562 leukemia"
measurement_name = "growth"
quantity_unit = "%"
obs_value = 102

[[record]]
compound = "CN1C(=O)N(C)C2C1NN=c1s/c(=C\\c3ccsc3)c(=O)n12 (stereo unspecified)"
system_tested = "K-562 leukemia"
measurement_name = "growth"
quantity_unit = "%"
obs_value = 13.5

[[record]]
compound = "O=C1N(Cc2ccccc2Cl)c2ccccc2C12NN=C(c1ccccc1)S2 (stereo unspecified)"
system_tested = "K-562 leukemia"
measurement_name = "growth"
quantity_unit = "%"
obs_value = 43.1

[[record]]
compound = "Oc1ccc(-c2nnc3c4[nH]ccc4ncn23)cc1"
system_tested = "K-562 leukemia"
measurement_name = "growth"
quantity_unit = "%"
obs_value = 98.4

[[record]]
compound = "CC(SC(C)C(=O)N/N=C/c1cccc(Cl)c1)C(=O)N/N=C\\c1cccc(Cl)c1 (stereo unspecified)"
system_tested = "K-562 leukemia"
measurement_name = "growth"
quantity_unit = "%"
obs_value = 79.7

[[record]]
compound = "O=C1CCCN1C1CCN2CCCc3cccc1c32 (stereo unspecified)"
system_tested = "K-562 leukemia"
measurement_name = "growth"
quantity_unit = "%"
obs_value = 109

[[record]]
compound = "COc1ccc2c(c1)sc1nc(-c3ccccc3)c(-c3cccc4ccccc34)n12"
system_tested = "K-562 leukemia"
measurement_name = "growth"
quantity_unit = "%"
obs_value = 15

[[record]]
compound = "Cc1csc(N/N=C/c2ccncc2)n1"
system_tested = "K-562 leukemia"
measurement_name = "growth"
quantity_unit = "%"
obs_value = 94.1

[[record]]
compound = "CC(C)OC1OC(OC(C)C)C(OC(C)C)OC1OC(C)C (stereo unspecified)"
system_tested = "K-562 leukemia"
measurement_name = "growth"
quantity_unit = "%"
obs_value = 92.5

[[record]]
compound = "COc1cccc(N2CCN(c3ncnc4cc[nH]c34)CC2)c1"
system_tested = "K-562 leukemia"
measurement_name = "growth"
quantity_unit = "%"
obs_value = 37.7

[[record]]
compound = "CCOC(=O)N1C2CCC(C2)N1C(=O)OCC"
system_tested = "K-562 leukemia"
measurement_name = "growth"
quantity_unit = "%"
obs_value = 94.6


These measurements were taken from PubChem BioAssay (NCI).
